# ASSAYED SYSTEM: T1, Human PSMA antigen (human, UniProt Q04609 44-750, limits assumed)
# T1 construct: This is the antigen immobilised on the Biacore chip; also called FOLH1_HUMAN
# T1 sequence (Q04609 44-750 limits assumed): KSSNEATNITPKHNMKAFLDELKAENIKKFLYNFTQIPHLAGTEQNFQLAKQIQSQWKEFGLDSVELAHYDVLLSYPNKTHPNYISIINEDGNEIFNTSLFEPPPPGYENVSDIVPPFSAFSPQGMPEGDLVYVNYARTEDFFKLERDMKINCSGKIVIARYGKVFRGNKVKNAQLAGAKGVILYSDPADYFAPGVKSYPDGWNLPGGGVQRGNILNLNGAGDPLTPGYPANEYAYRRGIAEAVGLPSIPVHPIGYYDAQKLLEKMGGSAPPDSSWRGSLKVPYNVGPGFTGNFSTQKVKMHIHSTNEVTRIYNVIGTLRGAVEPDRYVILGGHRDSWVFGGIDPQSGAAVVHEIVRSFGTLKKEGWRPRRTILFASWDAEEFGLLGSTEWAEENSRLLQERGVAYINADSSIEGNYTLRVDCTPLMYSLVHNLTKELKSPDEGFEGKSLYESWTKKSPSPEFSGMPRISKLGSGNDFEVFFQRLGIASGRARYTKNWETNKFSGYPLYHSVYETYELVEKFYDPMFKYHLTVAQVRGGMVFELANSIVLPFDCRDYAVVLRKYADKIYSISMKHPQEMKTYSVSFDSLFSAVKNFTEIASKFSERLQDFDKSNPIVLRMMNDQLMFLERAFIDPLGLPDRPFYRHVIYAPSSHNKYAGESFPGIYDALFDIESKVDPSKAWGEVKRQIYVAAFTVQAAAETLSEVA
# ASSAY EXPLANATION: SPR (Biacore), 37 C, antibody over immobilized PSMA
# From the text: The calculated kinetic parameters derived from SPR are shown in FIG. 4C, showing distinct differences in affinities when compared to the chimeric and the original mouse antibody J591. Increased affinity of anti-PSMA antibodies should translate into higher potency, while lower affinity anti-PSMA antibodies into lower toxicity. This affinity modulation is achieved without altering the CDR sequences. […]
koff listing for selected binders.
Report only the number, with the unit s⁻¹ understood.

10J5-chimeric J591 (antibody, V domains shown, also called J591 chimeric antibody) VH: EVQLQQSGPELVKPGTSVRISCKTSGYTFTEYTIHWVKQSHGKSLEWIGNINPNNGGTTYNQKFEDKATLTVDKSSSTAYMELRSLTSEDSAVYYCAAGWNFDYWGQGTTLTVSS VL: DIVMTQSHKFMSTSVGDRVSIICKASQDVGTAVDWYQQKPGQSPKLLIYWASTRHTGVPDRFTGSGSGTDFTLTITNVQSEDLADYFCQQYNSYPLTFGAGTMLDLKR ... 1.21e-05

Task item: Recorded koff for huJ591 (J591_VH-2 + J591_VL-1) (antibody, human IgG1, V domains shown, One of the 9 huJ591 versions; Human IgG1 frameworks) VH: QVQLVQSGAEVKKPGASVKVSCKASGYTFTEYTMHWVRQAPGQGLEWMGNINPNNGGTTYNQKFQGRVTMTVDKSISTAYMELSRLRSDDTAVYYCAAGWNFDYWGQGTLVTVSS VL: DIQLTQSPSFLSASVGDRVTITCRASQDVGTALDWYQQKPGKAPKLLIYWASTLHSGVPSRFSGSGSGTEFTLTISSLQPEDFATYYCQQYNSYPLTFGQGTKLEIK , please?
Reply: 0.000176

Task item: And the next one, murine J591 (antibody, V domains shown, also called original mouse antibody J591; mouse J591) VH: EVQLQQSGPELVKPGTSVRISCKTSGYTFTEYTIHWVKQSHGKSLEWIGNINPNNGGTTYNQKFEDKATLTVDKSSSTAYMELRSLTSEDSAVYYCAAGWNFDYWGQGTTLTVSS VL: DIVMTQSHKFMSTSVGDRVSIICKASQDVGTAVDWYQQKPGQSPKLLIYWASTRHTGVPDRFTGSGSGTDFTLTITNVQSEDLADYFCQQYNSYPLTFGAGTMLDLKR ?
Reply: 0.000113

Task item: Same question for huJ591 (J591_VH-3 + J591_VL-2) (antibody, human IgG1, V domains shown, One of the 9 huJ591 versions; Human IgG1 frameworks) VH: QVQLVQSGAEVKKPGASVKVSCKASGYTFTEYTMHWVRQAPGQRLEWMGNINPNNGGTTYSQKFQGRVTITVDKSASTAYMELSSLRSEDTAVYYCAAGWNFDYWGQGTLVTVSS VL: DIQLTQSPSFLSASVGDRVTITCRASQDVGTALDWYQQKPGKAPKLLIYWASTRHSGVPSRFSGSGSGTEFTLTISSLQPEDFATYYCQQYNSYPLTFGQGTKLEIK please.
Reply: 0.000146

Task item: Also check huJ591 (J591_VH-1 + J591_VL-1) (antibody, human IgG1, V domains shown, One of the 9 huJ591 versions made from three heavy and three light chain designs; Human IgG1 frameworks, expressed in CHO cells) VH: QVQLVQSGAEVKKPGASVKVSCKASGYTFTEYTMHWVRQAPGQGLEWMGNINPNNGGTTYAQKFQGRVTMTRDKSISTAYMELSRLRSDDTAVYYCAAGWNFDYWGQGTLVTVSS VL: DIQLTQSPSFLSASVGDRVTITCRASQDVGTALDWYQQKPGKAPKLLIYWASTLHSGVPSRFSGSGSGTEFTLTISSLQPEDFATYYCQQYNSYPLTFGQGTKLEIK
Reply: 0.000228

Task item: Please do the same for huJ591 (J591_VH-3 + J591_VL-3) (antibody, human IgG1, V domains shown, One of the 9 huJ591 versions; Human IgG1 frameworks) VH: QVQLVQSGAEVKKPGASVKVSCKASGYTFTEYTMHWVRQAPGQRLEWMGNINPNNGGTTYSQKFQGRVTITVDKSASTAYMELSSLRSEDTAVYYCAAGWNFDYWGQGTLVTVSS VL: DIVMTQSPSSLSASVGDRVTITCRASQDVGTALDWYQQKPGKAPELLIYWASSLHSGVPSRFRGSGSGTDFTLTISSVQPEDFATYYCQQYNSYPLTFGQGTKLEIK as well.
Reply: 0.00057
